Ref: PubChem BioAssay (NCI)

protocol: NCI Yeast Anticancer Drug Screen. Data for the sgs1 mgt1 strain (AID 161);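 note: 0% = growth of cultures given vehicle only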
conditions: S. cerevisiae sgs1 mgt1 strain, at 50.0 µM, active compounds read high
Compounds without any hit were thinned out: in the full panel of roughly 79,000, 15% have a hit.
Recorded measurements of growth inhibition, one per entry
Just the number in %, nothing appended.

CNCC(O)c1cn(C)c2ccccc12 (centres undefined) = 25.1
CCOP(=O)(Oc1ccc([N+](=O)[O-])cc1)c1ccccc1C(C)C (centres undefined) = 95.6
COc1cc(C[C@H]2c3cc(OC)c(OC)c(O)c3CCN2C)c(Oc2cc3c(cc2OC)-c2c(OC)c(OC)c(OC)c4c2C(C3)N(C)CC4)cc1OC (some centres undefined) (tested in a mixture with another compound) = 47.8
CCC/C=[CH]/[Hg][Cl] = 99.5
COc1ccc(NP(=S)(Nc2ccc(OC)cc2)c2ccccc2)cc1 = 49.6

Query string: Give its growth inhibition value. Item: COC(=O)C1=C(O)C(C(=O)OC)[C@]2(O)[C@@H](C(=O)OC)[C@H]1C[C@@H](c1ccccc1)[C@@H]2C(=O)OC (some centres undefined)
Result string: 98.3

Query string: // repeat for "COP(=S)(OC)N(C)C(=O)Oc1cccc2ccccc12" and report
Result string: 60

Query string: // repeat for "Cc1cc[n+](C2=C(Nc3cc(C)cc(C)c3)C(=O)c3ccccc3C2=O)cc1" and report
Result string: 9.5

Query string: // repeat for "COc1cc(C=Nc2cc(Br)c(OC)c(Br)c2)ccc1N(CCCl)CCCl" and report
Result string: 76.2

----------
protocol: NCI Yeast Anticancer Drug Screen. Data for the mlh1 rad18 strain (AID 175)
conditions: S. cerevisiae mlh1 rad18 strain growth inhibition; at 50.0 µM; active compounds read high
This is part of a sample that, as a whole, favours compounds with a hit. Of some 79,000 tested, about 15% had one in any assay.
Param threshold (80%) applies to growth inhibition; output yes (1) when value >= threshold, no (0) when value < threshold.

N#C[S-].[Ce+3].c1ccc(-c2ccccn2)nc1.c1ccc(-c2ccccn2)nc1.c1ccc(-c2ccccn2)nc1 = yes (1)
CCOC(=O)C1CC12c1ccccc1-c1ccccc12 (stereo not given) = no (0)
CC(C)=[CH][Sb]([Br])([CH]=C(C)C)([CH]=C(C)C)[CH]=C(C)C = no (0)

Query string: Does "CC(C)COP(=O)(OCC(C)C)C(=O)Nc1ccc(Cl)cc1" have a reported growth inhibition of at least 80%?
Result string: no (0)

Query string: // repeat for "CCC(=O)O[C@H]1CC[C@H]2[C@@H]3CCC4=C/C(=N/OC(=O)c5cccc6c(=O)c7ccccc7[nH]c56)CC[C@]4(C)[C@H]3CC[C@]12C" and report
Result string: no (0)

Query string: // repeat for "COc1ccc(-c2c(C)c(C(=O)O)nc(-c3ccc4c(O)c(OC)c5c(c4n3)=NC(C)(C)N=5)c2N)c(O)c1OC" and report
Result string: no (0)

Query string: // repeat for CCN(CC)P1(=O)OC(c2ccccc2)=CCN1c1ccc(OC)cc1 (stereo not given) and report
Result string: yes (1)

Query string: // repeat for "Nc1c(Cl)cccc1C(=O)O" and report
Result string: no (0)

Query string: // repeat for "C[CH2][Hg][Cl]" and report
Result string: yes (1)
